Test system: Human immunodeficiency virus type 1 reverse transcriptase (Human immunodeficiency virus 1), Q72547 [Y181I]
testReadout: log10 ID50 (log10 of the value in µM)
A difference of one corresponds to tenfold ID50; all values are log10 with ID50 in µM.

Field request: log10 ID50 | item: COc1ccc(C2CC2CSc2nc(C(C)c3c(F)cccc3F)c(C)c(=O)[nH]2)cc1 (racemic)
0.78

Field request: log10 ID50 | item: Cc1c([C@H](C)c2c(F)cccc2F)nc(SC/C=C/c2ccccc2)[nH]c1=O
0.48

Field request: log10 ID50 | item: COc1ccc([C@H]2C[C@@H]2CSc2nc([C@@H](C)c3c(F)cccc3F)c(C)c(=O)[nH]2)cc1
0.36

Field request: log10 ID50 | item: COc1ccc([C@H]2C[C@@H]2CSc2nc([C@H](C)c3c(F)cccc3F)c(C)c(=O)[nH]2)cc1
-0.05

Field request: log10 ID50 | item: COc1ccc([C@@H]2C[C@H]2CSc2nc([C@H](C)c3c(F)cccc3F)c(C)c(=O)[nH]2)cc1
-0.10

Field request: log10 ID50 | item: COc1ccc(/C=C/CSc2nc([C@@H](C)c3c(F)cccc3F)c(C)c(=O)[nH]2)cc1
1.44

Field request: log10 ID50 | item: COc1ccc([C@@H]2C[C@H]2CSc2nc([C@@H](C)c3c(F)cccc3F)c(C)c(=O)[nH]2)cc1
0.78

---

Biological target: Human immunodeficiency virus type 1 reverse transcriptase (Human immunodeficiency virus 1, UniProt Q72547, K103N)
Assay: Inhibition of HIV1 recombinant reverse transcriptase K103N mutant-DNA-dNTP ternary complex expressed in Escherichia coli BL21
Task for the reader: assign each of the following molecules its reported Ki.
# number only, unit nM dropped from output

Field request: Ki | item: COc1ccc([C@@H]2C[C@H]2CSc2nc([C@H](C)c3c(F)cccc3F)c(C)c(=O)[nH]2)cc1
30

Field request: Ki | item: COc1ccc([C@H]2C[C@@H]2CSc2nc([C@H](C)c3c(F)cccc3F)c(C)c(=O)[nH]2)cc1
300

---

Test: Cytotoxicity against human MT4 cells by MTT assay
Format: cell-based
testReadout: CC50 (µM)
# number only, unit µM dropped from output

Field request: CC50 | item: COc1ccc([C@@H]2C[C@H]2CSc2nc([C@@H](C)c3c(F)cccc3F)c(C)c(=O)[nH]2)cc1
47.2

Field request: CC50 | item: COc1ccc([C@@H]2C[C@H]2CSc2nc([C@H](C)c3c(F)cccc3F)c(C)c(=O)[nH]2)cc1
14.6

Field request: CC50 | item: COc1ccc(C2CC2CSc2nc(C(C)c3c(F)cccc3F)c(C)c(=O)[nH]2)cc1 (racemic)
37.3

---

Target: Human immunodeficiency virus type 1 reverse transcriptase (Human immunodeficiency virus 1, UniProt Q72547, K103N)
Experiment: Inhibition of HIV1 recombinant free reverse transcriptase K103N mutant expressed in Escherichia coli BL21
Task for the reader: assign each of the following compounds its reported Ki.
# number only, unit nM dropped from output

Field request: Ki | item: COc1ccc([C@@H]2C[C@H]2CSc2nc([C@H](C)c3c(F)cccc3F)c(C)c(=O)[nH]2)cc1
65

Field request: Ki | item: COc1ccc([C@H]2C[C@@H]2CSc2nc([C@H](C)c3c(F)cccc3F)c(C)c(=O)[nH]2)cc1
600

---

Task for the reader: assign each of the following compounds its reported ID50.
System: Human immunodeficiency virus type 1 reverse transcriptase (Human immunodeficiency virus 1), Q72547 [K103N]
# number only, unit nM dropped from output

Field request: ID50 | item: Cc1c([C@H](C)c2c(F)cccc2F)nc(SC/C=C/c2ccccc2)[nH]c1=O
470

Field request: ID50 | item: COc1ccc([C@H]2C[C@@H]2CSc2nc([C@H](C)c3c(F)cccc3F)c(C)c(=O)[nH]2)cc1
400

Field request: ID50 | item: COc1ccc(C2CC2CSc2nc(C(C)c3c(F)cccc3F)c(C)c(=O)[nH]2)cc1 (racemic)
3000

Field request: ID50 | item: COc1ccc([C@@H]2C[C@H]2CSc2nc([C@@H](C)c3c(F)cccc3F)c(C)c(=O)[nH]2)cc1
600

Field request: ID50 | item: COc1ccc(/C=C/CSc2nc([C@@H](C)c3c(F)cccc3F)c(C)c(=O)[nH]2)cc1
7010

Field request: ID50 | item: COc1ccc([C@@H]2C[C@H]2CSc2nc([C@H](C)c3c(F)cccc3F)c(C)c(=O)[nH]2)cc1
40

Field request: ID50 | item: COc1ccc([C@H]2C[C@@H]2CSc2nc([C@@H](C)c3c(F)cccc3F)c(C)c(=O)[nH]2)cc1
830

---

Target: Human immunodeficiency virus type 1 reverse transcriptase (Human immunodeficiency virus 1) (UniProt Q72547)
testReadout: log10(ID50) (log10 of the value in µM)
A difference of one corresponds to tenfold ID50; all values are log10 with ID50 in µM.

Field request: log10(ID50) | item: COc1ccc([C@H]2C[C@@H]2CSc2nc([C@@H](C)c3c(F)cccc3F)c(C)c(=O)[nH]2)cc1
-0.92

Field request: log10(ID50) | item: COc1ccc(/C=C/CSc2nc([C@@H](C)c3c(F)cccc3F)c(C)c(=O)[nH]2)cc1
-0.22

Field request: log10(ID50) | item: COc1ccc([C@H]2C[C@@H]2CSc2nc([C@H](C)c3c(F)cccc3F)c(C)c(=O)[nH]2)cc1
-1.40

Field request: log10(ID50) | item: COc1ccc([C@@H]2C[C@H]2CSc2nc([C@H](C)c3c(F)cccc3F)c(C)c(=O)[nH]2)cc1
-1.70

Field request: log10(ID50) | item: COc1ccc(C2CC2CSc2nc(C(C)c3c(F)cccc3F)c(C)c(=O)[nH]2)cc1 (racemic)
-1.40

Field request: log10(ID50) | item: Cc1c([C@H](C)c2c(F)cccc2F)nc(SC/C=C/c2ccccc2)[nH]c1=O
-2.00

Field request: log10(ID50) | item: COc1ccc([C@@H]2C[C@H]2CSc2nc([C@@H](C)c3c(F)cccc3F)c(C)c(=O)[nH]2)cc1
-0.52

---

Task for the reader: assign each of the following molecules its reported Ki.
Target: Human immunodeficiency virus type 1 reverse transcriptase (Human immunodeficiency virus 1)
Test: Inhibition of wild type HIV1 reverse transcriptase-DNA binary complex
# number only, unit nM dropped from output

Field request: Ki | item: COc1ccc([C@@H]2C[C@H]2CSc2nc([C@H](C)c3c(F)cccc3F)c(C)c(=O)[nH]2)cc1
8

Field request: Ki | item: COc1ccc([C@H]2C[C@@H]2CSc2nc([C@H](C)c3c(F)cccc3F)c(C)c(=O)[nH]2)cc1
30

---

Molecular target: Human immunodeficiency virus type 1 reverse transcriptase (Human immunodeficiency virus 1)
Test: Inhibition of wild type HIV1 reverse transcriptase-DNA-dNTP ternary complex
testReadout: pKi
Value format note: pKi is -log10 of concentration (mol/L); just state the number.

# returns recorded pKi (system: Human immunodeficiency virus type 1 reverse transcriptase (Human immunodeficiency virus 1)) for COc1ccc([C@@H]2C[C@H]2CSc2nc([C@H](C)c3c(F)cccc3F)c(C)c(=O)[nH]2)cc1
8.05

# returns recorded pKi (system: Human immunodeficiency virus type 1 reverse transcriptase (Human immunodeficiency virus 1)) for COc1ccc([C@H]2C[C@@H]2CSc2nc([C@H](C)c3c(F)cccc3F)c(C)c(=O)[nH]2)cc1
7.40

---

System: Human immunodeficiency virus 1
Assay: Antiviral activity against HIV1 reverse transcriptase Y181C mutant infected in human MT4 cells after 5 days by MTT assay
Format: functional, organism-based
Conditions: Human immunodeficiency virus 1, MT4, 120 h
Task for the reader: assign each of the following molecules its reported pEC50.
Value format note: pEC50 is -log10 of concentration (mol/L); just state the number.

Field request: pEC50 | item: COc1ccc([C@@H]2C[C@H]2CSc2nc([C@@H](C)c3c(F)cccc3F)c(C)c(=O)[nH]2)cc1
6.28

Field request: pEC50 | item: COc1ccc(C2CC2CSc2nc(C(C)c3c(F)cccc3F)c(C)c(=O)[nH]2)cc1 (racemic)
6.80

Field request: pEC50 | item: COc1ccc([C@H]2C[C@@H]2CSc2nc([C@@H](C)c3c(F)cccc3F)c(C)c(=O)[nH]2)cc1
5.14

Field request: pEC50 | item: O=C1Nc2ccc(Cl)cc2[C@@](C#CC2CC2)(C(F)(F)F)O1
8.10

Field request: pEC50 | item: COc1ccc([C@H]2C[C@@H]2CSc2nc([C@H](C)c3c(F)cccc3F)c(C)c(=O)[nH]2)cc1
5.57

Field request: pEC50 | item: COc1ccc([C@@H]2C[C@H]2CSc2nc([C@H](C)c3c(F)cccc3F)c(C)c(=O)[nH]2)cc1
7.89

The reported measurements were obtained from ChEMBL document CHEMBL1143382.
